IC50 values, listed per item
# Tested Target: HIS-tagged IDO1 protein (Homo sapiens (Human))
# Sequence (P14902 whole entry): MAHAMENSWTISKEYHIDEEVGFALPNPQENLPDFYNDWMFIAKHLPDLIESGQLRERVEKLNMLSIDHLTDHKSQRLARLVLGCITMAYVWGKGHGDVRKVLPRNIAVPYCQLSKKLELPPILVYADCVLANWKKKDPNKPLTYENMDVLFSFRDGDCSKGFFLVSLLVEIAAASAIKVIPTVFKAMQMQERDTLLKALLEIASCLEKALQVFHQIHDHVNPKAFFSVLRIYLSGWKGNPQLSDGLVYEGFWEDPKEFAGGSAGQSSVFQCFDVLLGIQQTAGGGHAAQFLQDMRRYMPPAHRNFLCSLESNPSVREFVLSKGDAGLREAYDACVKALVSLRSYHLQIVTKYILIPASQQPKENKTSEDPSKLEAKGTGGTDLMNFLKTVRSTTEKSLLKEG
# Test Name: IDO1 Enzyme Assay
# Assay type: biochemical
# Test Context: recombinant IDO1 40 nM, tryptophan substrate, fluorescence readout
# Method: Biological Assays IDO1 Enzyme Assay Compounds to be tested were serially diluted in ten 3-fold steps in DMSO starting from 10 mM DMSO stocks. […] HIS-tagged IDO1 protein was recombinantly expressed in Escherichia coli using ZYP5052 autoinduction media supplemented with 500 μM delta aminolevulinic acid for 48 hours at 16 degrees Celsius. […] The resulting fluorescence was measured in an Envision plate reader (Perkin Elmer) with a 400/25 nm excitation filter and an 510/20 nm emission filter. […]
Your answer is read as µM, so omit the unit and give the number.

Compound | Tested Target | IC50 / µM
NS(=O)(=O)CCCOc1nonc1/C(=N/O)N[C@H]1Cc2ccc(F)cc21 [Example 29] | HIS-tagged IDO1 protein (Homo sapiens (Human)) | 0.0731
O=C(CO)N1CC[C@H](Oc2nonc2/C(=N/O)N[C@H]2Cc3ccc(F)cc32)C1 [Example 25] | HIS-tagged IDO1 protein (Homo sapiens (Human)) | 1.21
C[C@H](CO)NC(=O)COc1nonc1/C(=N/O)N[C@H]1Cc2ccc(F)cc21 [Example 8] | HIS-tagged IDO1 protein (Homo sapiens (Human)) | 0.11

Query: # get_value(readout='IC50', item= C[C@H](O)C(=O)N1CC(Oc2nonc2/C(=N/O)N[C@H]2Cc3ccc(F)cc32)C1 [Example 48] )
Result: 0.102

Query: Record: O=C(CO)N1CC(COc2nonc2/C(=N/O)N[C@H]2Cc3ccc(F)cc32)C1 [Example 59]
Result: 0.364

Query: What do you have for CC(=O)N[C@H](CO)COc1nonc1/C(=N/O)N[C@H]1Cc2ccc(F)cc21 [Example 51] ?
Result: 1.07

Query: Same lookup for O=C(COc1nonc1/C(=N/O)NC1Cc2ccc(F)cc21)NCC(O)CO (stereo not shown) [Example 12] , please.
Result: 0.7

Query: Would you mind doing NS(=O)(=O)N1CCC(Oc2nonc2/C(=N/O)N[C@H]2Cc3ccc(F)cc32)CC1 [Example 49] as well?
Result: 10.7

Query: Also, C[C@H](O)CNC(=O)COc1nonc1/C(=N/O)N[C@H]1Cc2ccc(F)cc21 [Example 9] please.
Result: 0.413

Query: Similarly, O=C(CO)N1CC(Oc2nonc2/C(=N/O)N[C@H]2Cc3ccc(F)cc32)C1 [Example 2] ?
Result: 0.0757

Query: Repeat for the following compound: O=C(CO)N1CCC[C@@H]1COc1nonc1/C(=N/O)N[C@H]1Cc2ccc(F)cc21 [Example 58]
Result: 1.49

Query: Let us now turn to O=C(CO)N1CC[C@H]1COc1nonc1/C(=N/O)N[C@H]1Cc2ccc(F)cc21 [Example 54]
Result: 1.49

Query: Same read-out for C[C@@H](CNS(N)(=O)=O)Oc1nonc1/C(=N/O)N[C@H]1Cc2ccc(F)cc21 [Example 67] ?
Result: 1.55

Query: Do the same for CC(=O)NCCOc1nonc1/C(=N/O)N[C@H]1Cc2ccc(F)cc21 [Example 3] please
Result: 0.0585

Query: Moving on to the next compound: NS(=O)(=O)NCCOc1nonc1/C(=N/O)N[C@H]1CCc2ccc(F)cc21 [Example 24]
Result: 0.421
